A collection of compounds and their measured melting point

Reference set (4 entries):
Compound	melting point
COc1cc2c(cc1OC)-c1c(C#N)c(-c3cc(C)c(O)c(C)c3)c(C)n1C(C)C2 (stereo not shown) [Example 28]	268 to 270 °C
COc1cc2c(cc1OC)-c1c(C#N)c(-c3ccc(C(=O)O)cc3)c(C)n1C(C)C2 (stereo not shown) [Example 47]	287 to 289 °C
CCOC(=O)c1c(-c2cccc3ccccc23)c(C)n2c1-c1cc(OC)c(OC)cc1C1CCCCC12 (stereo not shown) [Example 12]	189 to 191 °C
COc1cc2c(cc1OC)-c1c(C#N)c(-c3ccc(-c4nn[nH]n4)cc3)c(C)n1C(C)C2 (stereo not shown) [Example 57]	204 to 207 °C

Would you kindly look at the next entry?
Please list melting point recorded for the compound COc1cc2c(cc1OC)-c1c(C#N)c(-c3cc(C)c(O)c(C)c3)c(CN3CCOCC3)n1C(C)C2 (stereo not shown) [Example 44] 228 to 230 °C

----------
A collection of compounds and their measured melting point

Compound	Val
COC(=O)c1c(-c2cn(S(=O)(=O)c3ccc(C)cc3)c3ccccc23)c(C)n2c1-c1cc(OC)c(OC)cc1CC2C (stereo not drawn)	177 to 179 °C
CCOC(=O)c1c(-c2cc(C)c(O)c(C)c2)c(C)n2c1-c1cc(OC)c(OC)c(OC)c1CC2C (stereo not drawn)	144 °C
COc1cc2c(cc1OC)-c1c(C#N)c(-c3c[nH]c4ccccc34)c(C)n1CC2	304 to 307 °C
CCOC(=O)c1c(-c2cc(C)c(O)c(C)c2)c(CC)n2c1-c1cc(OC)c(OC)cc1CC2C (racemic)	188 to 190 °C
COc1cc2c(cc1OC)-c1c(C#N)c(-c3ccncc3C)c(C)n1C(C)C2 (stereo not drawn)	232 to 233 °C

Please list melting point recorded for the compound CCOC(=O)c1c(-c2cc(C)c(O)c(C)c2)c(C)n2c1-c1cc(OC)c(OC)cc1C1CCCCC12 (stereo not drawn) 186 to 192 °C

Please list melting point recorded for the compound COc1cc2c(cc1OC)-c1c(C#N)c(-c3ccnc(C)c3)c(C)n1C(C)C2 (stereo not drawn) 187 to 189 °C

----------
A collection of compounds and their measured melting point

Compound	Property Label	Val
COC(=O)CCc1c(-c2ccnc3ccccc23)c(C#N)c2n1CCc1cc(OC)c(OC)cc1-2	melting point	232 to 234 °C
COC(=O)CCc1c(-c2ccncc2)c(C#N)c2n1CCc1cc(OC)c(OC)cc1-2	melting point	191 to 193 °C
CCOC(=O)c1c(-c2cc(C)c(O)c(C)c2)c(C)n2c1-c1cc(OC)c(OC)cc1CC2CC (racemic)	melting point	164 to 166 °C

Please list melting point recorded for the compound COc1cc2c(cc1OC)-c1c(C#N)c(-c3cc[n+]([O-])cc3)c(C)n1C(C)C2 (centres unmarked) 279 to 282 °C

Please list melting point recorded for the compound COc1cc2c(cc1OC)-c1c(C#N)c(-c3ccncc3)c(C)n1C(C)C2 (centres unmarked) 253 to 254 °C

Please list melting point recorded for the compound COc1cc2c(cc1OC)-c1c(C#N)c(-c3ccc(N)cc3)c(C)n1C(C)C2 (centres unmarked) 237 to 239 °C

Please list melting point recorded for the compound COc1cc2c(cc1OC)-c1c(C#N)c(-c3cn(S(C)(=O)=O)c4ccccc34)c(C)n1C(C)C2 (centres unmarked) 219 to 221 °C

Please list melting point recorded for the compound COc1cc2c(cc1OC)-c1c(C)c(-c3cc(C)c(O)c(C)c3)c(C)n1CC2 183 to 185 °C

----------
A collection of molecules and their measured melting point

Reference set (3 entries):
Molecule	melting point
COc1cc2c(cc1OC)-c1c(C#N)c(-c3ccc(NS(C)(=O)=O)cc3)c(C)n1C(C)C2 (centres unmarked) [Example 59]	257 to 259 °C
CCOC(=O)c1c(-c2cccc3ccccc23)c(C)n2c1-c1cc(OC)c(OC)cc1CC2C (racemic) [Example 11]	184 °C
COc1cc2c(cc1OC)-c1c(C#N)c(-c3ccnc4ccccc34)c(C)n1CC2 [Example 23]	239 to 243 °C

Would you kindly look at the next entry?
Please list melting point recorded for the molecule COc1cc2c(c(F)c1OC)CC(C)n1c(C)c(-c3cc(C)c(O)c(C)c3)c(C#N)c1-2 (centres unmarked) [Example 30] 166 to 168 °C

----------
Property Label: melting point

Reference set (2 entries):
Molecule	Property Label	Val
CCOC(=O)c1c(-c2cc(C)c(O)c(C)c2)c(C)n2c1-c1cc(OC)c(OC)cc1CC2C (racemic)	melting point	158 to 161 °C
COc1cc2c(cc1OC)-c1c(C#N)c(-c3cccc4ccccc34)c(C)n1CC2	melting point	226 to 229 °C

Would you kindly look at the next entry?
Please list melting point recorded for the molecule CCOC(=O)c1c(-c2cccc3ccccc23)c(CCC(=O)OC)n2c1-c1cc(OC)c(OC)cc1CC2C (racemic) 56 to 59 °C

----------
Property Label: melting point

Please list melting point recorded for the compound COc1cc2c(cc1OC)-c1c(C#N)c(-c3ccc(O)cc3C)c(C)n1C(C)C2 (stereo not shown) 228 to 230 °C

----------
A collection of compounds and their measured melting point

Reference set (3 entries):
Compound	Property Label	Val
COC(=O)CCc1c(-c2cc(C)c(O)c(C)c2)c(C#N)c2n1C(C)Cc1cc(OC)c(OC)cc1-2 (stereo not drawn) [Example 27]	melting point	208 to 209 °C
COc1cc2c(cc1OC)-c1c(C#N)c(-c3ccc(C(N)=O)cc3)c(C)n1C(C)C2 (stereo not drawn) [Example 52]	melting point	228 to 230 °C
CCOc1cc2c(cc1OC)-c1c(C#N)c(-c3cc(C)c(O)c(C)c3)c(C)n1C(C)C2 (stereo not drawn) [Example 53]	melting point	232 to 234 °C

Please list melting point recorded for the compound CCOC(=O)c1c(-c2cc(OC)c(OC)c(OC)c2)c(C)n2c1-c1cc(OC)c(OC)cc1CC2C (racemic) [Example 10] 116 to 118 °C

Please list melting point recorded for the compound COc1cc2c(cc1OC)-c1c(C#N)c(-c3ccc(NS(=O)(=O)N4CCOCC4)cc3)c(C)n1C(C)C2 (stereo not drawn) [Example 58] 223 to 225 °C

Please list melting point recorded for the compound COc1cc2c(cc1OC)-c1c(C#N)c(-c3ccc([N+](=O)[O-])cc3)c(C)n1C(C)C2 (stereo not drawn) [Example 46] 206 to 207 °C

Please list melting point recorded for the compound COC(=O)CCc1c(-c2cc(C)c(O)c(C)c2)c(C#N)c2n1CCc1cc(OC)c(OC)cc1-2 [Example 32] 217 to 219 °C

Please list melting point recorded for the compound CCOC(=O)c1c(-c2ccnc3ccccc23)c(C)n2c1-c1cc(OC)c(OC)cc1C1CCCCC12 (stereo not drawn) [Example 13] 153 to 157 °C

Please list melting point recorded for the compound CCOc1cc2c(cc1OC)-c1c(C#N)c(-c3ccc(C(=O)O)cc3)c(C)n1C(C)C2 (stereo not drawn) [Example 50] 274 to 277 °C

Please list melting point recorded for the compound COc1cc2c(cc1OC)-c1c(C#N)c(-c3cn(S(=O)(=O)N(C)C)c4ccccc34)c(C)n1C(C)C2 (stereo not drawn) [Example 54] 236 to 237 °C

Please list melting point recorded for the compound COc1cc2c(cc1OC)-c1c(C#N)c(-c3cc(C(C)(C)C)c(O)c(C(C)(C)C)c3)c(C)n1CC2 [Example 25] 250 to 252 °C

Please list melting point recorded for the compound COC(=O)c1c(-c2cc(C)c(O)c(C)c2)c(C)n2c1-c1cc(OC)c(OC)cc1CC2C (stereo not drawn) [Example 65] 177 to 179 °C
